Each recorded value in this set is attributed to patent US20120252741A1.

System: Enterococcus faecalis 848 (VRE, Van A)
MEASUREMENT_DESCRIPTION: MIC, broth microdilution, EFc 848
Type: cell-based
EXPERIMENTAL_SETUP: Table 1; VRE, Van A; class symbols; read-out: MIC E FC 848
I'd be grateful if you could share measured MIC for these entries.

Would you please look over these solved cases?
CCCCOCC(=O)NC(=O)C[C@@H]1NC(=O)[C@H](NC(=O)[C@@H](CC(C)C)NC)[C@H](O)c2ccc(c(Cl)c2)Oc2cc3cc(c2O[C@@H]2O[C@H](CO)[C@@H](O)[C@H](O)[C@H]2O[C@H]2C[C@](C)(N)[C@H](O)[C@H](C)O2)Oc2ccc(cc2Cl)[C@@H](O)[C@@H]2NC(=O)[C@H](NC(=O)[C@@H]3NC1=O)c1ccc(O)c(c1)-c1c(O)cc(O)cc1[C@@H](C(=O)NC1C3CC4CC(C3)CC1C4)NC2=O (stereo partly drawn)    > 16 µg/mL
CCCCCCCCCC(=O)NC(=O)C[C@@H]1NC(=O)[C@H](NC(=O)[C@@H](CC(C)C)NC)[C@H](O)c2ccc(c(Cl)c2)Oc2cc3cc(c2O[C@@H]2O[C@H](CO)[C@@H](O)[C@H](O)[C@H]2O[C@H]2C[C@](C)(N)[C@H](O)[C@H](C)O2)Oc2ccc(cc2Cl)[C@@H](O)[C@@H]2NC(=O)[C@H](NC(=O)[C@@H]3NC1=O)c1ccc(O)c(c1)-c1c(O)cc(O)cc1[C@@H](C(=O)NC1C3CC4CC(C3)CC1C4)NC2=O (stereo partly drawn)    1 to 2 µg/mL

Please examine the following record next.
Which measured MIC value corresponds to CN[C@H](CC(C)C)C(=O)N[C@H]1C(=O)N[C@@H](CC(=O)NS(=O)(=O)c2ccc(OCCOCCOC)cc2)C(=O)N[C@H]2C(=O)N[C@H]3C(=O)N[C@H](C(=O)N[C@H](C(=O)NC4C5CC6CC(C5)CC4C6)c4cc(O)cc(O)c4-c4cc3ccc4O)[C@H](O)c3ccc(c(Cl)c3)Oc3cc2cc(c3O[C@@H]2O[C@H](CN)[C@@H](O)[C@H](O)[C@H]2O)Oc2ccc(cc2Cl)[C@H]1O (stereo partly drawn) ?
2 to 4 µg/mL

====

Tested on: Streptococcus pneumoniae 1195 (ATCC 49619)
MEASUREMENT_DESCRIPTION: MIC, broth microdilution, SPNE 1195
Type: cell-based
EXPERIMENTAL_SETUP: Streptococcus pneumoniae, ATCC49619; Table 1; class symbols; read-out: MIC S PNE 1195
Record form. Attribute: MIC. Fill in for each entry.

A selection of reference data follows.
CN[C@H](CC(C)C)C(=O)N[C@H]1C(=O)N[C@@H](CC(=O)NS(=O)(=O)c2ccc(OCCOC)cc2)C(=O)N[C@H]2C(=O)N[C@H]3C(=O)N[C@H](C(=O)N[C@H](C(=O)NC4C5CC6CC(C5)CC4C6)c4cc(O)cc(O)c4-c4cc3ccc4O)[C@H](O)c3ccc(c(Cl)c3)Oc3cc2cc(c3O[C@@H]2O[C@H](CN)[C@@H](O)[C@H](O)[C@H]2O)Oc2ccc(cc2Cl)[C@H]1O (stereo partly drawn)    0.01 to 0.5 µg/mL
CCCCCCCCC(=O)NC(=O)C[C@@H]1NC(=O)[C@H](NC(=O)[C@@H](CC(C)C)NC)[C@H](O)c2ccc(c(Cl)c2)Oc2cc3cc(c2O[C@@H]2O[C@H](CO)[C@@H](O)[C@H](O)[C@H]2O[C@H]2C[C@](C)(N)[C@H](O)[C@H](C)O2)Oc2ccc(cc2Cl)[C@@H](O)[C@@H]2NC(=O)[C@H](NC(=O)[C@@H]3NC1=O)c1ccc(O)c(c1)-c1c(O)cc(O)cc1[C@@H](C(=O)NC1C3CC4CC(C3)CC1C4)NC2=O (stereo partly drawn)    0.01 to 0.5 µg/mL

For each of the compounds below, note its MIC.
1. CCCCOc1ccc(S(=O)(=O)NC(=O)C[C@@H]2NC(=O)[C@H](NC(=O)[C@@H](CC(C)C)NC)[C@H](O)c3ccc(c(Cl)c3)Oc3cc4cc(c3O[C@@H]3O[C@H](CO)[C@@H](O)[C@H](O)[C@H]3O)Oc3ccc(cc3Cl)[C@@H](O)[C@@H]3NC(=O)[C@H](NC(=O)[C@@H]4NC2=O)c2ccc(O)c(c2)-c2c(O)cc(O)cc2[C@@H](C(=O)NC2C4CC5CC(C4)CC2C5)NC3=O)cc1 (stereo partly drawn)
2. CCCCOCC(=O)NC(=O)C[C@@H]1NC(=O)[C@H](NC(=O)[C@@H](CC(C)C)NC)[C@H](O)c2ccc(c(Cl)c2)Oc2cc3cc(c2O[C@@H]2O[C@H](CO)[C@@H](O)[C@H](O)[C@H]2O[C@H]2C[C@](C)(N)[C@H](O)[C@H](C)O2)Oc2ccc(cc2Cl)[C@@H](O)[C@@H]2NC(=O)[C@H](NC(=O)[C@@H]3NC1=O)c1ccc(O)c(c1)-c1c(O)cc(O)cc1[C@@H](C(=O)NC1C3CC4CC(C3)CC1C4)NC2=O (stereo partly drawn)
3. CN[C@H](CC(C)C)C(=O)N[C@H]1C(=O)N[C@@H](CC(=O)NS(=O)(=O)c2ccc(OCCOCCOC)cc2)C(=O)N[C@H]2C(=O)N[C@H]3C(=O)N[C@H](C(=O)N[C@H](C(=O)NC4C5CC6CC(C5)CC4C6)c4cc(O)cc(O)c4-c4cc3ccc4O)[C@H](O)c3ccc(c(Cl)c3)Oc3cc2cc(c3O[C@@H]2O[C@H](CN)[C@@H](O)[C@H](O)[C@H]2O)Oc2ccc(cc2Cl)[C@H]1O (stereo partly drawn)
4. CCOCCOCCOc1ccc(S(=O)(=O)NC(=O)C[C@@H]2NC(=O)[C@H](NC(=O)[C@@H](CC(C)C)NC)[C@H](O)c3ccc(c(Cl)c3)Oc3cc4cc(c3O[C@@H]3O[C@H](CN)[C@@H](O)[C@H](O)[C@H]3O)Oc3ccc(cc3Cl)[C@@H](O)[C@@H]3NC(=O)[C@H](NC(=O)[C@@H]4NC2=O)c2ccc(O)c(c2)-c2c(O)cc(O)cc2[C@@H](C(=O)NC2C4CC5CC(C4)CC2C5)NC3=O)cc1 (stereo partly drawn)

1. 0.01 to 0.5 µg/mL
2. 0.01 to 0.5 µg/mL
3. 0.01 to 0.5 µg/mL
4. 0.5 to 1 µg/mL
